Entry source: the supplement of paper PMC10567573

protein stability index overview
B1: MGC27345 (parent)
chain: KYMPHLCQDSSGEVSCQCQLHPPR

variants of: B1; assay: protein stability index of a GFP-peptide fusion (GPS, HEK-293T) (PSI 1-6); higher = more stable; settings: c terminus: a fixed tail appended;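 also: lentivirally expressed fusions sorted by FACS into six bins by GFP to DsRed ratio, PSI derived from sequencing read proportions per bin multiplied by bin number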

[[record]]
variant_key = "P22A"
obs_value = 2.66

[[record]]
variant_key = "H21S"
obs_value = 2.86

[[record]]
variant_key = "V14K"
obs_value = 2.64

[[record]]
variant_key = "S11Q"
obs_value = 1.63

[[record]]
variant_key = "Q17P"
obs_value = 2.21


Please give the measured protein stability index for this variant: `C18Y` 1.69

Please give the measured protein stability index for this variant: `S11L` 2.04

Please give the measured protein stability index for this variant: `L6R` 2.05

Please give the measured protein stability index for this variant: `D9L` 2.18
